tested.target: pooled human IgG (human IgG1,2,3 and 4)
property.label: Enzyme Activity Endpoint Assay (purified): IgG (ng/µL)
Unit ng/µL implied. Number only.

PRT-489 (protein) MVTSVWTKGVTPPANFTQGEDVFHAPYVANQGWYDITKTFNGKDNLLCGAATAGNMLHWWFDQNKDQIERYLKEHPEKQKIIFNNQELFDLKAAIDTKDSQTDSKLFEYFKEKAFPYLSTKHLGVFPDHVLDMFINGYRLSLTNHGPTPVKEGSKDKRGGIFDAVFTRGVQSKLLTSRHDLKNKTLKEISDLIKQELTEGKALGLSHTYANVRINHVINLWGADFDSEGNLKAIYVTDSDTNASIGMKKYFVGVNSAGKVAISAKEIKEDNIGAQVLGLFTLSTGQDIWNQTNLEHHHHHH = 0
PRT-328 (protein) MTITSVWTKGVTPPTPEDFRKNNEDVLHAPYVANQGWYDITKTFDGKDNLLCGAATAGNMLHWWFDQNKEEIERYLKKHPEKQKIIFNNQELFDVKAAIDTKDSQTNSKLFNYFRDKAFPGLSARQLGVFPDLVLDMFINGYYLNLGKTQSTDVNRPYQDKDKRGGIFDAVFTRGVQTTLLTARHDLKNKGLNEISDLIKQELTEGKALALSHTYANVRINHVINLWGADFDAEGNLIAIYVTDSDANASIGMKKYFVGRNANGKVAISAKKIEGDNIGAQVLGLFTLSTGQDIWQKLS = 75
PRT-302 (protein) MVTSVWTKGVTPPTDFIKGEDVFHAPYKAGQGWYDITKTFNGKDDLLCGAATAGNMLHWWFDQNKEYIEAYLKKHPEKQKIMFGDQELLDVRKAINTKGSQKNSELFNYFRDKAFPNLSARRLGVMPDLVLDMFINGYYLNVTKTQTTDVNRTYQEKDKRGGIFDAVFTRGDQSKLLTSRHDFKEKGLKEISDLIKQELTEGKALGLSHTYANVRLNHVINLWGADFDSDGNLKAIYVTDSDSNASIGMKKYGVGVNSAGKVAISAKEIKEDNIGAQVLGLFTLSTGQDIWNQTN = 0

Query protein follows.
Identify Enzyme Activity Endpoint Assay (purified): IgG associated with the protein PRT-349 (protein) MSQTEDSESLQRLRDIEDFQAEKKDQNVVYTKWLDGVDVKDHDFRKIVDGNIAYYATPLLNGRGLYDINKDFNRDSDKCAAAVAANMFHYWLDINRDNVDRFLRQNPEKHGIIELPDGQLKLSDFLNTYESDHGYRDKSKLFDFISENFNGPVWTDKLLDNYINGYAYNYKYGRTIEDPTKNTSKINFFKEVFNEKILTNNHSIRNQNELSVLLSEALYTGKAIGLSYGPAGLRHSLGHIISVWGADLDADGNVVAIYVTDSDDKKLTIGDERVGLKRYKISTDDENRLRLTAYEETHNTGGQVRGLWTLDTGKYAWADYFDKTEQTGTDQAEQ
0

Sourced from patent US20250027068
